Form field: pIC50 (one value per entry).
# measured.on: T1, human IGF-1 receptor (human, UniProt P08069 31-1367)
# T1 construct: whole, on cells; also called IGF-IR; IGR-1R
# protocol: competition with 125I-IGF-1, receptor membranes, SPA
Bridges are numbered along the chain shown (N, C = ends). Roman numbers before positions name the chains, in order. Where no end group is shown, it is not given here.
Quick note: pIC50 means taking -log10 of the concentration in moles per liter.

Example entries begin here.
IGF-1 A:B (E10Y16L17) DPI (ligand, disulfide I:6-I:11, I:20-II:18, I:7-II:6) chain 1: GIVDECCFRSCDLRRLEMYCA-NH2 chain 2: GPETLCGAELVDALYLVCGDRGFY-NH2 ... 7.64
IGF-1 A (H8 A9 N21):B(H5D10Y16L17 A22) DPI A-COOH (ligand) chain 1: GIVDECCHASCDLRRLEMYCN chain 2: GPEHLCGADLVDALYLVCGDAGFY ... 7.64
IGF-1 A (H8 A9 N21):B(H5D10Y16L17) DPI A-COOH (ligand, disulfide I:6-I:11, I:20-II:18, I:7-II:6) chain 1: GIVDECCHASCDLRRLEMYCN-OH chain 2: GPEHLCGADLVDALYLVCGDRGFY-NH2 ... 8.39
IGF-1 A:In (1-17)-IGF-1 B (18-30) (ligand, disulfide I:6-I:11, I:20-II:19, I:7-II:7) chain 1: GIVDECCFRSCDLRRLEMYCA-NH2 chain 2: FVNQHLCGSHLVEALYLVCGDRGFYFNKPT-NH2 ... 7.20
IGF-1 A:B(E10 Y16L17)-E31E32 B-COOH (ligand, disulfide I:6-I:11, I:20-II:18, I:7-II:6) chain 1: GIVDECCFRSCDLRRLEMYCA-NH2 chain 2: GPETLCGAELVDALYLVCGDRGFYFNKPTEE-OH ... 7.76
IGF-1 A:B (H5D10Y16L17) DPI (ligand, disulfide I:6-I:11, I:20-II:18, I:7-II:6) chain 1: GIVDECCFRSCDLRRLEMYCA-NH2 chain 2: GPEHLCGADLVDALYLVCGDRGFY-NH2 ... 8.33

Inquiry: I have this binder here, IGF-1 A:In B(1-5)-IGF-1 B(YL)(6-30) (ligand, not fully specified (bridges); cysteine pairing not given here; also: C-terminal amide, chain not given here) chain 1: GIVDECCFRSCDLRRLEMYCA chain 2: FVNQHLCGAELVDALYLVCGDRGFYFNKPT , and I need its recorded pIC50.
Reply text: 7.56

Inquiry: I have this binder here, IGF-1 A:B(D10Y16L17) DPI A-COOH (ligand, disulfide I:6-I:11, I:20-II:18, I:7-II:6) chain 1: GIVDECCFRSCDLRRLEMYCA-OH chain 2: GPETLCGADLVDALYLVCGDRGFY-NH2 , and I need its recorded pIC50.
Reply text: 8.17

Inquiry: I have this binder here, IGF-1 A:IGF-1 B(1-8)-In (9-17)-IGF-1 B(18-30) (ligand, disulfide I:6-I:11, I:20-II:18, I:7-II:6) chain 1: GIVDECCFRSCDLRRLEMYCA-NH2 chain 2: GPETLCGSHLVEALYLVCGDRGFYFNKPT-NH2 , and I need its recorded pIC50.
Reply text: 6.88

Data provenance is patent US20150299285A1.
